Would you mind telling me the reported pIC50 of each entry?
# target under test: recombinant DYRK1A kinase (Homo sapiens (Human), UniProt Q13627)
# test protocol: DYRK1A kinase assay (Ser/Thr 18 peptide Z-lyte FRET assay)
# stated conditions: DYRK1A 0.25 μg/mL, ATP 15 μM, Ser/Thr peptide 18 4 μM; one hour at room temperature; 11-point dose-response, duplicate
In plain terms, pIC50 is the concentration in mol/L turned into minus its base-10 logarithm.

Measured pIC50 of CNc1nc(N[C@H]2C[C@H](C(C)(C)O)C2)nn2ccc(-c3ccc4nc(C)n(CC(F)F)c4n3)c12 [Compound 355] : 8.38

Measured pIC50 of CNc1nc(N[C@@H]2[C@@H]3CN(C(C)=O)C[C@@H]32)nn2ccc(-c3ccc4nc(C)n(CC(F)F)c4n3)c12 [Compound 220] : 8.01

Measured pIC50 of [2H]C([2H])([2H])Nc1nc(N[C@@H]2CCN(CC)CC2(F)F)nn2ccc(-c3ccc4nc(C)n(CC(F)F)c4n3)c12 [Compound 385] : 8.34
